test system: COLO 205 colon; assay: NCI-60 one-dose screen, 48 h (100 = growth as untreated, 0 = no growth, -100 = all killed); settings: 10 µM unless noted
Compounds without any hit were thinned out: in the full panel of roughly 83,000, 20% have a hit.
Parameter Measured: growth (%)

- Compound: "CC(CCC(=O)O)(NC(=O)c1ccc([N+](=O)[O-])cc1)C(=O)O (stereo not given)"
  Parameter Measured: "growth"
  U: "%"
  Reported Result: 107
- Compound: "O=C1Nc2ccccc2C12Nc1cc(Cl)ccc1S2 (stereo not given)"
  Parameter Measured: "growth"
  U: "%"
  Reported Result: 98.3
- Compound: "CCC(C)CC(C)C(=O)c1c(O)ccn(OC)c1=O (stereo not given)"
  Parameter Measured: "growth"
  U: "%"
  Reported Result: 109
- Compound: "O=C(Nc1cccc([N+](=O)[O-])c1)c1cccc(C(=O)Nc2cccc([N+](=O)[O-])c2)c1"
  Parameter Measured: "growth"
  U: "%"
  Reported Result: 120
- Compound: "CC[N+](C)(CC)CCCC(C)Nc1ccnc2cc(Cl)ccc12 (stereo not given)"
  Parameter Measured: "growth"
  U: "%"
  Reported Result: 107
- Compound: "Cc1nn(-c2ccc(Cl)cc2)c2nc3c(nc12)C(=O)C(=O)c1ccccc1-3"
  Parameter Measured: "growth"
  U: "%"
  Reported Result: 54.3
- Compound: "O=[N+]([O-])c1ccc(N/N=C/c2c(O)ccc3ccccc23)nc1"
  Parameter Measured: "growth"
  U: "%"
  Reported Result: 73.1
- Compound: "Clc1ccc([C@@H]2C[C@@H]3Cc4cc(Br)c5ccccc5c4N2O3)c(Cl)c1"
  Parameter Measured: "growth"
  U: "%"
  Reported Result: 98.4
- Compound: "CCOC(=O)c1c(C)nc(C)c(C(=O)OCC)c1-c1cccnc1"
  Parameter Measured: "growth"
  U: "%"
  Reported Result: 101
- Compound: "O=C(Cc1ccccn1)C(F)(F)C(F)(F)C(F)(F)F"
  Parameter Measured: "growth"
  U: "%"
  Reported Result: 127
- Compound: "COc1ccc(C(=O)/C=C/c2c(Cl)nc3c(c(C)nn3-c3ccccc3)c2-c2ccc(Br)cc2)cc1"
  Parameter Measured: "growth"
  U: "%"
  Reported Result: 111
- Compound: "Cc1nn(-c2ccccc2)c2nc(Cl)c(/C=C/C(=O)c3ccccc3)c(-c3ccccc3)c12"
  Parameter Measured: "growth"
  U: "%"
  Reported Result: 121
- Compound: "CC(=O)Oc1ccc(C23c4ccccc4C2(OC(C)=O)c2cc(OC(C)=O)ccc23)cc1 (stereo not given)"
  Parameter Measured: "growth"
  U: "%"
  Reported Result: 95.5
- Compound: "COc1ccc(OC)c2c1[nH]c(=O)c1c3ccccc3cn21"
  Parameter Measured: "growth"
  U: "%"
  Reported Result: -91.1
- Compound: "CN(CCOc1ccc(CC2SC(=O)NC2=O)cc1)c1ccccn1 (stereo not given)"
  Parameter Measured: "growth"
  U: "%"
  Reported Result: 82.7
- Compound: "Nc1nc(N)c([N+](=O)[O-])c(=O)[nH]1"
  Parameter Measured: "growth"
  U: "%"
  Reported Result: 109
- Compound: "CCC(CCC(C)C1CCC2C3CC=C4CC(O)CCC4(C)C3CCC12C)C(C)C (stereo not given) (tested in a mixture with another compound)"
  Parameter Measured: "growth"
  U: "%"
  Reported Result: 107
- Compound: "O=[N+]([O-])c1ccc2c(c1)S(=O)c1cc([N+](=O)[O-])ccc1N2"
  Parameter Measured: "growth"
  U: "%"
  Reported Result: 108
- Compound: "COc1ccc(Nc2nccc(N3CCN(c4c5ccc(Cl)cc5nc5ccc(OC)cc45)CC3)n2)cc1"
  Parameter Measured: "growth"
  U: "%"
  Reported Result: 61.1
- Compound: "CSc1ncc2ncn(C3OC(CO)C(O)C3O)c2n1 (stereo not given)"
  Parameter Measured: "growth"
  U: "%"
  Reported Result: 142
- Compound: "COC(=O)CC1=C(C)/C(=C/c2[nH]c(-c3ccc[nH]3)cc2OC)N=C1C"
  Parameter Measured: "growth"
  U: "%"
  Reported Result: 9.09
- Compound: "CCC(=O)Nc1ccccc1C#C/C=C\\C#Cc1ccccc1C(F)(F)F"
  Parameter Measured: "growth"
  U: "%"
  Reported Result: 59.4
- Compound: "C[n+]1c2ccccc2c(NC2CCNCC2)c2[nH]c3ccccc3c21"
  Parameter Measured: "growth"
  U: "%"
  Reported Result: -1.65
- Compound: "CCCCc1nc(Cl)c(CO)n1Cc1ccc(-c2ccccc2-c2nn[nH]n2)cc1"
  Parameter Measured: "growth"
  U: "%"
  Reported Result: 96.6
- Compound: "COc1cc(/C=C/C(=O)Nc2ccc3c(c2)/C(=C\\c2cccn2C)C(=O)N3)cc(OC)c1OC"
  Parameter Measured: "growth"
  U: "%"
  Reported Result: 53.7
- Compound: "Cc1cc(NC(=O)Nc2cccc3ccccc23)no1"
  Parameter Measured: "growth"
  U: "%"
  Reported Result: 154
- Compound: "O=C(NN(C(=O)c1ccccc1)c1cccs1)c1ccccc1"
  Parameter Measured: "growth"
  U: "%"
  Reported Result: 106
- Compound: "COc1cc2c(-c3nc4cc(Cl)c(F)cc4s3)cc(=O)oc2c(C)c1OC"
  Parameter Measured: "growth"
  U: "%"
  Reported Result: -46.6
- Compound: "CCCCCCCCSc1ncnc2c1ncn2CO"
  Parameter Measured: "growth"
  U: "%"
  Reported Result: 104
- Compound: "COc1ccc(OC)c(/C=C/c2nc(=S)n(-c3ccc(Cl)cc3)[nH]2)c1"
  Parameter Measured: "growth"
  U: "%"
  Reported Result: 104
- Compound: "O=C1C(Cl)=C(N=Nc2c(Cl)c(O)c3ccccc3c2O)C(=O)c2ccccc21"
  Parameter Measured: "growth"
  U: "%"
  Reported Result: 86.7
- Compound: "CC(=O)Oc1ccc(C2OC(c3ccc4ccccc4c3OC(C)=O)=NN2C(C)=O)c(OC(C)=O)c1 (stereo not given)"
  Parameter Measured: "growth"
  U: "%"
  Reported Result: 15.9
- Compound: "O=[N+]([O-])c1cnc(Sc2ccncn2)c([N+](=O)[O-])c1"
  Parameter Measured: "growth"
  U: "%"
  Reported Result: -11.8
- Compound: "Fc1ccc(-c2nnc(/C=C/c3cn(-c4ccccc4)nc3-c3ccccc3)o2)cc1"
  Parameter Measured: "growth"
  U: "%"
  Reported Result: 94.2
- Compound: "COc1ccc(C2CC(c3ccc(OC)c(OC)c3)=NN2C(=O)c2cc(OC)c(OC)c(OC)c2)cc1 (stereo not given)"
  Parameter Measured: "growth"
  U: "%"
  Reported Result: 8.03
- Compound: "Cc1ccsc1/C=C/C1=NCCCN1C"
  Parameter Measured: "growth"
  U: "%"
  Reported Result: 101
- Compound: "CC1=NN(c2ccccc2Cl)C(=O)/C1=C\\c1cn(S(=O)(=O)c2ccc(C)cc2)c2ccccc12"
  Parameter Measured: "growth"
  U: "%"
  Reported Result: 142
- Compound: "CO[C@H]1CC(O[C@@H]2/C(C)=C/C[C@@H]3C[C@@H](C[C@]4(CC[C@H](C)[C@@H](C5CCCCC5)O4)O3)OC(=O)[C@@H]3C=C(C)/C(=N/O)[C@H]4OC/C(=C\\C=C\\[C@@H]2C)[C@]43O)O[C@@H](C)C1O (stereo not given in full)"
  Parameter Measured: "growth"
  U: "%"
  Reported Result: -79.4
- Compound: "COc1ccc(/C(=C2\\O[C@@H]([C@H](O)CO)[C@H]3OC(C)(C)O[C@@H]23)c2cc(OC)c(OC)c(OC)c2)cc1O"
  Parameter Measured: "growth"
  U: "%"
  Reported Result: 126
- Compound: "CCn1c2c(c3ccccc31)SC1c3cccn3CCN1C2=S (stereo not given)"
  Parameter Measured: "growth"
  U: "%"
  Reported Result: 109

----------
system: M14 melanoma; experiment: NCI-60 one-dose screen, 48 h; details: 10 µM unless noted
About 83,000 compounds went through this panel and 20% of them were active in at least one assay; those are over-represented in the sample as a whole. The source made the active and inactive calls. How the source made its calls: active means growth percent below 10; inactive means the rest.
Labels: Yes for active, No for inactive

- Molecule: "O=[N+]([O-])c1ccc(N/N=C/c2c(O)ccc3ccccc23)nc1"
  Cat: "No"
- Molecule: "Cn1cnc([N+](=O)[O-])c1S(=O)(=O)Oc1ccc(Cl)cc1"
  Cat: "No"
- Molecule: "CC(c1ccccn1)C(C)(O)C(C)c1ccccn1 (centres undefined)"
  Cat: "No"
- Molecule: "O=C(Nc1cccc2ccccc12)c1cc2c(cc1Br)OCO2"
  Cat: "No"
- Molecule: "CO[C@H]1CC(O[C@@H]2/C(C)=C/C[C@@H]3C[C@@H](C[C@]4(CC[C@H](C)[C@@H](C5CCCCC5)O4)O3)OC(=O)[C@@H]3C=C(C)/C(=N/O)[C@H]4OC/C(=C\\C=C\\[C@@H]2C)[C@]43O)O[C@@H](C)C1O (some centres undefined)"
  Cat: "Yes"
- Molecule: "COc1ccc(-c2c(-c3cc(OC)c(OC)c(OC)c3)noc2N)cc1"
  Cat: "No"
- Molecule: "O=C1NCC(Nc2ccc(Br)cc2Cl)C(=O)N1 (centres undefined)"
  Cat: "No"
- Molecule: "O=C(N1CCC(CN=c2cc3n(-c4ccc(Cl)cc4)c4ccccc4nc-3cc2Nc2ccc(Cl)cc2)CC1)N1CC1"
  Cat: "Yes"
- Molecule: "O=C(Nc1ccc(Cl)cc1)Nc1ccc(Nc2nncc3ccccc23)cc1"
  Cat: "No"
